# procedure-details: Aqueous solubility of CCI-779
# Format: physicochemical
# condition-details: water (aqueous)
readout-type: solubility

Give the reported value of solubility for this record: CO[C@H]1C[C@@H]2CC[C@@H](C)[C@@](O)(O2)C(=O)C(=O)N2CCCC[C@H]2C(=O)O[C@H]([C@H](C)C[C@@H]2CC[C@@H](OC(=O)C(C)(CO)CO)[C@H](OC)C2)CC(=O)[C@H](C)/C=C(\C)[C@@H](O)[C@@H](OC)C(=O)[C@H](C)C[C@H](C)/C=C/C=C/C=C/1C [CCI-779] < 1 µg/mL
